study_system: T1, biotin-labeled human ADM (human, not fully specified; biotin label (named human ADM-C-biotin in Example 1.4; position of the biotin not stated for the other lots))
T1 construct: Synthetic peptide; also called human ADM-C-biotin; hADM-Biotin
T1 peptide: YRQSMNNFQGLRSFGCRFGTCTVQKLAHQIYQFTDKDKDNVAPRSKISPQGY
assay: flow staining of yeast-displayed Fab at graded antigen concentrations
Text: For the first round of screening products of JYYDL227, 46 monoclones were picked for sequencing, and finally, a yeast monoclonal colony with a unique sequence was obtained for EC₅₀ identification by flow staining. […]
I'd be grateful if you could share measured EC50 for these entries.
Give just the number in nM; leave the unit off.

Identify EC50 associated with the binder Ab2004.Am31 (Fab displayed on yeast) (Fab, V domains shown, Yeast monoclonal colony of library JYYDL227 (Fab display)) VH: QVQLVQSGAEVKKPGASVKVSCKASGYTFTQYGIAWVRQAPGQGLEWMGWISAYQGNTNYAQKLQGRVTMTRDTSTSTAYMELRSLRSDDTAVYYCAREGRWGGSFNIWGQGTMVTVSS VL: DIQMTQSPSSLSASVGDRVTITCRASEGISEYLAWYQQKPGKAPKLLIYDASNLETGVPSRFSGSGSGTDFTFTISSLQPEDIATYYCQQYDNLPLTFGGGTKVEIK
0.45

Answer with the recorded EC50 of Ab2004.Am32 (Fab displayed on yeast) (Fab, V domains shown, Yeast monoclonal colony of library JYYDL227 (Fab display)) VH: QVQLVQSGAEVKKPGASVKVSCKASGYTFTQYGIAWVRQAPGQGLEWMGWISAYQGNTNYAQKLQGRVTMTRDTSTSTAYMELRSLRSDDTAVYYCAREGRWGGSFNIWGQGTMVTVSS VL: DIQMTQSPSSLSASVGDRVTITCRAAEGIGSYLAWYQQKPGKAPKLLIYDASNLETGVPSRFSGSGSGTDFTFTISSLQPEDIATYYCQQYDNLPLTFGGGTKVEIK only.
0.41

Return EC50 for the following binder: Ab2004.Am33 (Fab displayed on yeast) (Fab, V domains shown, Yeast monoclonal colony of library JYYDL227 (Fab display)) VH: QVQLVQSGAEVKKPGASVKVSCKASGYTFTSYGISWVRQAPGQGLEWMGWISPYSGNTNYAQKLQGRVTMTRDTSTSTAYMELRSLRSDDTAVYYCAREGRWGGSFNIWGQGTMVTVSS VL: DIQMTQSPSSLSASVGDRVTITCRASEGISEYLAWYQQKPGKAPKLLIYDASNLETGVPSRFSGSGSGTDFTFTISSLQPEDIATYYCQQYDNLPLTFGGGTKVEIK
0.79

In one line, give reported EC50 of the entry Ab2004.Am39 (Fab displayed on yeast) (Fab, V domains shown, Yeast monoclonal colony of library JYYDL227 (Fab display)) VH: QVQLVQSGAEVKKPGASVKVSCKASGYTFTHYGIAWVRQAPGQGLEWMGWISAYQGNTNYAQKLQGRVTMTRDTSTSTAYMELRSLRSDDTAVYYCAREGRWGGSFNIWGQGTMVTVSS VL: DIQMTQSPSSLSASVGDRVTITCRASQGISSYLAWYQQKPGKAPKLLIYDASNLETGVPSRFSGSGSGTDFTFTISSLQPEDIATYYCQQYDDLDLTFGGGTKVEIK .
0.86

Return EC50 (reported value) for this binder: Ab2004.Am37 (Fab displayed on yeast) (Fab, V domains shown, Yeast monoclonal colony of library JYYDL227 (Fab display)) VH: QVQLVQSGAEVKKPGASVKVSCKASGYTFTSYGISWVRQAPGQGLEWMGWISPYTGKTNYAQKLQGRVTMTRDTSTSTAYMELRSLRSDDTAVYYCAREGRWGGSFNIWGQGTMVTVSS VL: DIQMTQSPSSLSASVGDRVTITCRASQGISSYLAWYQQKPGKAPKLLIYDVSILDAGVPSRFSGSGSGTDFTFTISSLQPEDIATYYCQQYDNLPLTFGGGTKVEIK
0.88

Specify measured EC50 for Ab2004.Am40 (Fab displayed on yeast) (Fab, V domains shown, Yeast monoclonal colony of library JYYDL227 (Fab display)) VH: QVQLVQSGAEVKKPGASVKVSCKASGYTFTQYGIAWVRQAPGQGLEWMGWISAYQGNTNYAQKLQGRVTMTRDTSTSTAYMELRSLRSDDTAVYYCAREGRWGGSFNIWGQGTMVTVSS VL: DIQMTQSPSSLSASVGDRVTITCRASQGISSYLAWYQQKPGKAPKLLIYDASNLETGVPSRFSGSGSGTDFTFTISSLQPEDIATYYCQQYDDLPLSFGGGTKVEIK .
0.5

Find the measured EC50 of Ab2004.Am01 (Fab displayed on yeast) (Fab, V domains shown) VH: QVQLVQSGAEVKKPGASVKVSCKASGYTFTSYGISWVRQAPGQGLEWMGWISAYQGNTNYAQKLQGRVTMTRDTSTSTAYMELRSLRSDDTAVYYCAREGRWGGSFNIWGQGTMVTVSS VL: DIQMTQSPSSLSASVGDRVTITCRASQGISSYLAWYQQKPGKAPKLLIYDASNLETGVPSRFSGSGSGTDFTFTISSLQPEDIATYYCQQYDNLPLTFGGGTKVEIK and report it.
4

State its EC50: Ab2004.Am35 (Fab displayed on yeast) (Fab, V domains shown, Yeast monoclonal colony of library JYYDL227 (Fab display)) VH: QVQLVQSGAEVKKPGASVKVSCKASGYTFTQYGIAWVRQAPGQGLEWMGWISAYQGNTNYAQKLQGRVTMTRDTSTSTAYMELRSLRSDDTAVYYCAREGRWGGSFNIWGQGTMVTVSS VL: DIQMTQSPSSLSASVGDRVTITCRASQGISSYLAWYQQKPGKAPKLLIYDVSILDAGVPSRFSGSGSGTDFTFTISSLQPEDIATYYCQQYDNLPLTFGGGTKVEIK
1.47

Report EC50 for Ab2004.Am34 (Fab displayed on yeast) (Fab, V domains shown, Yeast monoclonal colony of library JYYDL227 (Fab display)) VH: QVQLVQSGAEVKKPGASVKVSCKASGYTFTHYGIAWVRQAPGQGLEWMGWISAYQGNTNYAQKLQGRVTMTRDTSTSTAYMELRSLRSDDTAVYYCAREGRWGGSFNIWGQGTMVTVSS VL: DIQMTQSPSSLSASVGDRVTITCRASQGISSYLAWYQQKPGKAPKLLIYDVSILDAGVPSRFSGSGSGTDFTFTISSLQPEDIATYYCQQYDNLPLTFGGGTKVEIK
1.06

Name the recorded EC50 of the item Ab2004.Am36 (Fab displayed on yeast) (Fab, V domains shown, Yeast monoclonal colony of library JYYDL227 (Fab display)) VH: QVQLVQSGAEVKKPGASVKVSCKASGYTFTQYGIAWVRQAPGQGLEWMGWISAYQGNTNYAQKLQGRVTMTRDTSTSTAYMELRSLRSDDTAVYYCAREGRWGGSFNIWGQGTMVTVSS VL: DIQMTQSPSSLSASVGDRVTITCRASQGISSYLAWYQQKPGKAPKLLIYDASNVDTGVPSRFSGSGSGTDFTFTISSLQPEDIATYYCQQYDNLPLTFGGGTKVEIK in your answer.
1.73

For the binder Ab2004.Am38 (Fab displayed on yeast) (Fab, V domains shown, Yeast monoclonal colony of library JYYDL227 (Fab display)) VH: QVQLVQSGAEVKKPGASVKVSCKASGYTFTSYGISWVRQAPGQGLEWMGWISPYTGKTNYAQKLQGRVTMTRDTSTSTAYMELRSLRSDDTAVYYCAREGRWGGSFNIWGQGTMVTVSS VL: DIQMTQSPSSLSASVGDRVTITCRASQGISSYLAWYQQKPGKAPKLLIYDTSDLDTGVPSRFSGSGSGTDFTFTISSLQPEDIATYYCQQYDNLPLTFGGGTKVEIK , give its measured EC50 value.
0.74
